The values you see were collected from paper PMC5916032.

# assay system: fascin 1 (Homo sapiens, UniProt Q16658)
result type: IC50

Param request: IC50 | system fascin 1 (Homo sapiens, UniProt Q16658) | item Cc1cnoc1C(=O)Nc1nn(Cc2ccc(C(F)(F)F)cc2)c2ccccc12
~180 nM
